I'd be grateful if you could share measured Solubility (ug/mL) pH 7.4 for these entries.
# protocol_details: Aqueous solubility, pION method
# assay_context: pH 7.4
Numbers only, in ug/mL.

1) N[C@@H]1C[C@H](CO)C[C@H]1c1ccc(-c2cc(C(=O)O)cc3cc(-c4ccc(C(F)(F)F)cc4)ccc23)cc1
0.93
2) O=C(O)c1cc(-c2ccc([C@@H]3C[C@H]4CN[C@@H]3C4)cc2)c2ccc(-c3ccc(C(F)(F)F)cc3)cc2c1
0.40
3) N[C@H]1C[C@@H](CO)[C@H](c2ccc(-c3cc(C(=O)O)cc4cc(-c5ccc(C(F)(F)F)cc5)ccc34)cc2)C1
0.66
4) N[C@@H]1C[C@H](C(=O)O)C[C@H]1c1ccc(-c2cc(C(=O)O)cc3cc(-c4ccc(C(F)(F)F)cc4)ccc23)cc1
3.92
5) O=C(O)c1cc(-c2ccc(C34CCNCC3C4(F)F)cc2)c2ccc(-c3ccc(C(F)(F)F)cc3)cc2c1 (stereo not shown)
0.25

Hi team, please reply with Solubility (ug/mL) pH 7.4 for each item in this list.
1. CC1CC(c2ccc(-c3cc(C(=O)O)cc4cc(-c5ccc(C(F)(F)F)cc5)ccc34)cc2)CCN1 (stereo not shown)
2. O=C(O)c1cc(-c2ccc(C3C4CCC3CNC4)cc2)c2ccc(-c3ccc(C(F)(F)F)cc3)cc2c1 (stereo not shown)
3. O=C(O)c1cc(-c2ccc([C@@H]3C[C@@H]4C[C@H]3C(=O)N4)cc2)c2ccc(-c3ccc(C(F)(F)F)cc3)cc2c1
4. O=C(O)c1cc(-c2ccc(C34CCN(CC3)CC4)cc2)c2ccc(-c3ccc(C(F)(F)F)cc3)cc2c1
5. O=C(O)c1cc(-c2ccc([C@]3(O)C[C@H]4CC[C@@H]3CN4)cc2)c2ccc(-c3ccc(C(F)(F)F)cc3)cc2c1 [Compound 125a]
6. O=C(O)c1cc(-c2ccc([C@H]3C[C@H]4C[C@@H]3CN4)cc2)c2ccc(-c3ccc(C(F)(F)F)cc3)cc2c1
7. O=C(O)c1cc(-c2ccc([C@@]3(O)C[C@H]4CC[C@@H]3CN4)cc2)c2ccc(-c3ccc(C(F)(F)F)cc3)cc2c1 [Compound 125b]
8. CC(=O)N1C[C@H]2C[C@@H]1C[C@@H]2c1ccc(-c2cc(C(=O)O)cc3cc(-c4ccc(C(F)(F)F)cc4)ccc23)cc1

Reply |
1. 0.16
2. 0.13
3. 3.42
4. 0.55
5. 2.19
6. 0.77
7. 0.74
8. 1.86
